# Assay system: acetylcholine receptor
# Protocol text: SPR, AchR immobilized on CM5 chip, peptide 10 uM
Recorded endpoint: Binding affinity (RU)

1: KKQYYR [6mer-1-398]
2: RKIPKK [6mer-1-788]
3: RKMPVK [6mer-1-769]
Provide the items ranked by increasing Binding affinity (RU). Order the labels as requested and list them.
3, 2, 1

a: RRSQRR [6mer-1-335]
b: KKTMDR [6mer-1-747]
Given a and given b , which shows the smaller recorded Binding affinity (RU)? Kindly state the label of the option you pick.
b

a: RKKKMK [6mer-1-754]
b: RKYEPK [6mer-1-794]
c: RRLYCR [6mer-1-401]
Reorder the items by Binding affinity (RU), least to greatest. Order the labels as requested and list them.
b, a, c
(b: 11 RU, a: 24 RU, c: 127 RU)

1: RKDNKR [6mer-1-740]
2: KRLYYK [6mer-1-393]
From the recorded data, which exceeds the other in Binding affinity (RU): 1 or 2 ? Kindly state the label of the option you pick.
2
(2: 148 RU, 1: 26 RU)
